Reported MIC values for the following compounds.
tested on: Candida albicans; test: In vitro antifungal activity against […] (CA 34140); Not affected.; format: functional

STRUCTURE STRING | MIC
COC(=O)N(O)[C@@H]1C[C@@H]2CC[C@@H](C)[C@@](O)(O2)C(=O)C(=O)N2CCCC[C@H]2C(=O)O[C@H]([C@H](C)C[C@@H]2CC[C@@H](O)[C@H](OC)C2)CC(=O)[C@H](C)/C=C(\C)[C@@H](O)[C@@H](OC)C(=O)[C@H](C)C[C@H](C)/C=C/C=C/C=C/1C | ~100 µg/mL
CO[C@@H]1C[C@H](C[C@@H](C)[C@@H]2CC(=O)[C@H](C)/C=C(\C)[C@@H](O)[C@@H](OC)C(=O)[C@H](C)C[C@H](C)/C=C/C=C/C=C(\C)[C@H](N(O)C(=O)N(C)C)C[C@@H]3CC[C@@H](C)[C@@](O)(O3)C(=O)C(=O)N3CCCC[C@H]3C(=O)O2)CC[C@H]1O | ~100 µg/mL
